biological target: Mu-type opioid receptor (Homo sapiens); test: biochemical; format: functional; note: assay procedure not described here
Sequence (P35372 whole entry): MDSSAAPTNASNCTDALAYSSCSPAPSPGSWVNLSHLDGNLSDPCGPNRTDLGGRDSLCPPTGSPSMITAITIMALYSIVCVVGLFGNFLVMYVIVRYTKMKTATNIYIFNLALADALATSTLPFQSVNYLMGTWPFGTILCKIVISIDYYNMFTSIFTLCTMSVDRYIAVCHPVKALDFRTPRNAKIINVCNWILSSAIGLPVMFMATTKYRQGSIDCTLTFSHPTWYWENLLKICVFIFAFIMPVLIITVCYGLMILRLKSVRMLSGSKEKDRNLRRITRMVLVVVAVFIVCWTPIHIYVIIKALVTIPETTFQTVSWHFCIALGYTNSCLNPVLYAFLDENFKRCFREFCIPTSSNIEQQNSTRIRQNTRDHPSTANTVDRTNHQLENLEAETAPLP
Measured AC50 by item

Reference set (3 entries):
1. CN1C(C(=O)Nc2ccccn2)=C(O)c2ccccc2S1(=O)=O
> 30 µM
2. OC1(c2ccc(Cl)cc2)c2ccccc2C2=NCCN21 (configuration not stated)
16 µM
3. COc1cc(N)c(Cl)cc1C(=O)NC1CCN(Cc2ccccc2)CC1 [CLEBOPRIDE]
> 30 µM

Data request: Endpoint output: AC50 of CCN(CC)CCNC(=O)c1cc(S(C)(=O)=O)ccc1OC [TIAPRIDE] . Value?
Data returned: > 30 µM

Data request: Endpoint output: AC50 of CC(C)COCC(CN(Cc1ccccc1)c1ccccc1)N1CCCC1 (configuration not stated) . Value?
Data returned: 17 µM

Data request: Endpoint output: AC50 of C#C[C@]1(OC(C)=O)CC[C@H]2[C@@H]3CCC4=C/C(=N/O)CC[C@@H]4[C@H]3CC[C@@]21CC [NORGESTIMATE] . Value?
Data returned: > 30 µM

Data request: Endpoint output: AC50 of `[H]/N=C(/N)N/C(=N/[H])NCCc1ccccc1` . Value?
Data returned: > 30 µM

Data request: Endpoint output: AC50 of `CCN(CC)CCNC(=O)c1c(C)[nH]c(/C=C2\C(=O)Nc3ccc(F)cc32)c1C` . Value?
Data returned: > 30 µM

Data request: Endpoint output: AC50 of CCC(C)C1(CC)C(=O)NC(=O)NC1=O (configuration not stated) . Value?
Data returned: > 30 µM
